Biological target: T1, human GITR (amino acids M1-V241, NCBI Accession #NP_004186.1) expressed on cells (human, UniProt Q9Y5U5 26-241)
T1 sequence: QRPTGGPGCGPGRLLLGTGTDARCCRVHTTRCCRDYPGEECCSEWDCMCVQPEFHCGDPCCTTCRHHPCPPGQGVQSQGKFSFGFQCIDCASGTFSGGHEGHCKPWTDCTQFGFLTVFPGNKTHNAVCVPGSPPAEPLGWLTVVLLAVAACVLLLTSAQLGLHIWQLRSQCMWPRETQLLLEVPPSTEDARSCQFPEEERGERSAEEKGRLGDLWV
Test: cell-based or functional assay
// reported fold activation, T-cell proliferation, plate-bound Ab 10.6 nM, donor 5 per item
MEASURED_QUANTITY: fold activation, T-cell proliferation, plate-bound Ab 10.6 nM, donor 5 (fold)

| BINDER | ASSAY_VALUE |
| --- | --- |
| H4H14508P (antibody, human IgG4, V domains shown, human IgG4 (H4H)) VH: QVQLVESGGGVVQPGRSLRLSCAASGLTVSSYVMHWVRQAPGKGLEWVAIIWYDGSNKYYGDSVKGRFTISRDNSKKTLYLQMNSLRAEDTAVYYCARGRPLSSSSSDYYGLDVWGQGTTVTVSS VL: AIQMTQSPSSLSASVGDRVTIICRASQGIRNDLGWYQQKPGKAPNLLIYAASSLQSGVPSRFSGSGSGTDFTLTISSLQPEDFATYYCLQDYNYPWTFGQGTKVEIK | 4 |
| H4H14525P (antibody, human IgG4, V domains shown, human IgG4 (H4H)) VH: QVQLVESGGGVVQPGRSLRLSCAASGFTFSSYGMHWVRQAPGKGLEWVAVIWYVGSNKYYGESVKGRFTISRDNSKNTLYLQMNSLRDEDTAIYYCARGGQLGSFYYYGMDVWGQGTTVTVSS VL: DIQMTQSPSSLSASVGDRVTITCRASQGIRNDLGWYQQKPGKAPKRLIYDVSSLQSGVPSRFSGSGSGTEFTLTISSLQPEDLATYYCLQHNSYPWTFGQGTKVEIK | 1 |
| H4H14521P (antibody, human IgG4, V domains shown, human IgG4 (H4H)) VH: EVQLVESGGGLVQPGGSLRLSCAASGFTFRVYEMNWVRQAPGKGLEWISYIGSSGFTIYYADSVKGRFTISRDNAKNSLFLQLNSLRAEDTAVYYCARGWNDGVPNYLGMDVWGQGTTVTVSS VL: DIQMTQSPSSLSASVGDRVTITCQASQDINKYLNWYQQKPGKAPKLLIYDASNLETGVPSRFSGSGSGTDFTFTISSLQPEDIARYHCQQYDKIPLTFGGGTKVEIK | 4 |
